Can you tell me IC50 for the items I'm about to list?
- test_target: NR1/NR2A (Homo sapiens (Human), UniProt Q05586+Q12879)
- Sequence (Q12879 23-1464, other chains not shown): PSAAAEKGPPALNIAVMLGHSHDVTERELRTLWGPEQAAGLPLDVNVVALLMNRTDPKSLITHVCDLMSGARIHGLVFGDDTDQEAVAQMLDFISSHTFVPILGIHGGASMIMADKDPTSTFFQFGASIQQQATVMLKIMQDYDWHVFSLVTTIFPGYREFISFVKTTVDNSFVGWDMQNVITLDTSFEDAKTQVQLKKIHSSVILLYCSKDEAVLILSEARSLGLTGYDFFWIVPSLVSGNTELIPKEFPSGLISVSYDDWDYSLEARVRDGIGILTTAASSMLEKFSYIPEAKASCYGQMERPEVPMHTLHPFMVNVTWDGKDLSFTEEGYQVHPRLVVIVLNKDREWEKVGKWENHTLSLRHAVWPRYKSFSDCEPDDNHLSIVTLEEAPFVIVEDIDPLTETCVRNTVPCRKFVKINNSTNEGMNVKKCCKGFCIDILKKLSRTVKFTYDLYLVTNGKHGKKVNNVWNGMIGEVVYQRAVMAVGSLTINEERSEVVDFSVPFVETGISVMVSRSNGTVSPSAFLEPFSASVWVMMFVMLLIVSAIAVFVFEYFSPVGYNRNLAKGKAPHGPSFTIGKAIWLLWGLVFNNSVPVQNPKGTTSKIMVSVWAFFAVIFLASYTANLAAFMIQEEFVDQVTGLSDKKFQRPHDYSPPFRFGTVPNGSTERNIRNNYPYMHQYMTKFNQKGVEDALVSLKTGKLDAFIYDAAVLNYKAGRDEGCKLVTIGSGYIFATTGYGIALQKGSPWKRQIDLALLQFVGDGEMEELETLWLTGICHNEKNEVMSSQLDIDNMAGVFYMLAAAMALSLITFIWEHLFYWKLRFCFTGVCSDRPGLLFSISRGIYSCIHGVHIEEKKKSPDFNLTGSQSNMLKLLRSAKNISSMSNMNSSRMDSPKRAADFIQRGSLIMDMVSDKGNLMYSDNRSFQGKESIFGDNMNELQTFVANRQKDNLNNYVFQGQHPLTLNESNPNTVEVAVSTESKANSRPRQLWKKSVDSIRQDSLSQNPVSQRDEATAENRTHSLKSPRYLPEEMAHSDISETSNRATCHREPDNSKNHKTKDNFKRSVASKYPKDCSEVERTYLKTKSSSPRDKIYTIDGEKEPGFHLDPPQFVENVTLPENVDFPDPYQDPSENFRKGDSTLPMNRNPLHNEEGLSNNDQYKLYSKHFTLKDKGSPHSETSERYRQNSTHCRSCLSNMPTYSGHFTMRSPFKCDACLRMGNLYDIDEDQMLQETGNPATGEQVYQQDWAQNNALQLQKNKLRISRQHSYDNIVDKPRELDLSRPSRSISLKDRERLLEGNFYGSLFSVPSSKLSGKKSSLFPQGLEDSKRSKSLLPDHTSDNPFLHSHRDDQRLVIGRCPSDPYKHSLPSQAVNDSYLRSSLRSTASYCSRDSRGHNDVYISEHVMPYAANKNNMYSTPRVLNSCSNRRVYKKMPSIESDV
- assay_name: FDSS Ca2+ influx inhibition assay in HEK293 cells expressing NR1/NR2A
- Format: cell-based
- measurement_context: 3 μM glutamate, 3 μM glycine, 1 mM Ca2+, read-out: Binned Activity

Take a look at these entries with their results.
| compound | IC50 |
| --- | --- |
| Cc1ncc(CNC(=O)c2ccc(CNS(=O)(=O)c3ccc(Cl)c(Cl)c3)cn2)s1 | 1 to 10 µM |
| Cc1nnc(CNC(=O)c2cnc(CNS(=O)(=O)c3ccc(F)c(Cl)c3)cn2)s1 | 0.1 to 1 µM |
| Cc1ncc(CNC(=O)c2cnc(CNS(=O)(=O)c3cccc(Cl)c3)cn2)s1 | 0.1 to 1 µM |
| Cc1ncc(CNC(=O)c2ncc(CNS(=O)(=O)c3ccc(F)c(Cl)c3)cn2)s1 | > 10 µM |
| O=C(NCc1ccccn1)c1ccc(CNS(=O)(=O)c2ccc(F)c(Cl)c2)nc1 | > 10 µM |

Hey, can you go through the list below and give me IC50 for every item?
1. O=C(NC1CCS(=O)(=O)C1)c1ccc(CNS(=O)(=O)c2ccc(F)c(Cl)c2)cn1 (stereo not shown)
2. O=C(NCc1ccco1)c1ccc(CNS(=O)(=O)c2ccc(F)c(Cl)c2)cn1
3. Cc1nc(CNC(=O)c2ccc(CNS(=O)(=O)c3ccc(F)c(Cl)c3)nn2)cs1

Out:
["> 10 µM", "> 10 µM", "> 10 µM"]

Hi there! I need IC50 for each item below, if you can.
1. O=C(NCc1cccnc1)c1ncc(CNS(=O)(=O)c2ccc(F)c(Cl)c2)cn1
2. O=C(NCc1cccs1)c1ccc(CNS(=O)(=O)c2ccc(F)c(Cl)c2)cn1

Out:
1. > 10 µM
2. > 10 µM
